These entries and their values trace back to patent US6492426B1.

system: amphetamine-induced hyperactivity in rats; experiment: amphetamine-induced hyperactivity model of mania in rats (automated activity monitors); format: in vivo, Sprague Dawley rats; details: group mean n=10; 75 mg/kg IP twice; amphetamine 0.5 mg/kg s.c.; third 10 min interval
VALUE_TYPE: Locomotor activity, 30-20 min, mean
Answer with the figure and its unit, nothing else.

CC(=O)N[C@@H]1CCc2ccccc21 [Compound 1, (R)-N-acetyl aminoindan] : 449.8 counts
Cl.NCC(=O)N[C@H]1CCc2ccccc21 [Compound 2, (S)-N-indanyl glycinamide HCl] : 462.6 counts
O=CN[C@H]1CCc2ccccc21 [Compound 4, (S)-N-formyl aminoindan] : 488 counts

INPUT: Endpoint output: Locomotor activity, 30-20 min, mean of Cl.NCC(=O)NC1CCc2ccccc21 (racemic) [Compound 3, (rac)-N-(2-aminoacetyl)-1-aminoindan HCl] . Value?
OUTPUT: 360.4 counts
